# TARGET_UNDER_TEST: Furin (Homo sapiens)
# Sequence (P09958 whole entry): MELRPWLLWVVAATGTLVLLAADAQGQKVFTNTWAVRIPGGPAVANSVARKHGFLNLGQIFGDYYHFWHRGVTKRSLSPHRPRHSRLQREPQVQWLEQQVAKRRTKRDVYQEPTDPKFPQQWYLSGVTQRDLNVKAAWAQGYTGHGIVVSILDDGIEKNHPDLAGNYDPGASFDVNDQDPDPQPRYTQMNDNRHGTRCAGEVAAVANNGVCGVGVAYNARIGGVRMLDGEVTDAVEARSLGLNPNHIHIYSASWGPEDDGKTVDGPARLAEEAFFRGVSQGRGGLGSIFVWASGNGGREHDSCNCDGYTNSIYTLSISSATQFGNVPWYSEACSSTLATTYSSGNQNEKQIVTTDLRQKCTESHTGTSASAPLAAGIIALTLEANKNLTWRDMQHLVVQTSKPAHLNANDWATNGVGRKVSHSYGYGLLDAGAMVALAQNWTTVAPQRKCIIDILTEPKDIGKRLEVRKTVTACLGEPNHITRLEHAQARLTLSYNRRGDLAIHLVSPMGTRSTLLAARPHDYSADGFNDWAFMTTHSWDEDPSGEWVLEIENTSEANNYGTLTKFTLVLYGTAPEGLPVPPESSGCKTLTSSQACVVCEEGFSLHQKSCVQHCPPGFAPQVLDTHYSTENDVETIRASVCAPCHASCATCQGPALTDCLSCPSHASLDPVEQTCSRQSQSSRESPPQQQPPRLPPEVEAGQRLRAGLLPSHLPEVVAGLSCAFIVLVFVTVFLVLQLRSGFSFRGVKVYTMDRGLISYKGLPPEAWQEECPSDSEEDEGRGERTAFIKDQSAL
# PROCEDURE_SUMMARY: Inhibition of recombinant human furin expressed in drosophila S2 cells using pyrGlu-Arg-Thr-Lys-Arg-7-amido-4-methylcoumarin as substrate after 60 mins by spectrofluorometry method
Peptide text beside a SMILES is read from it. * marks the point of attachment. NH(4-amidinobenzyl) = N=C(N)c1ccc(CN*)cc1
MEASUREMENT_LABEL: pKi
Reminder that pKi means the negative base-10 logarithm of the concentration expressed in mol/L.

## Input # get_value(readout='pKi', item= CC(=O)N[C@@H](CC(C)C)C(=O)N1CCC[C@H]1C(=O)N[C@@H](CC(C)C)C(=O)N[C@@H](CC(C)C)C(=O)N[C@@H](CCCNC(=N)N)C(=O)N[C@H](C(=O)N[C@@H](CCCCN)C(=O)NCc1ccc(C(=N)N)cc1)C(C)C (Ac-LPLLRVK-{NH(4-amidinobenzyl)}) )
## Output 8.82

## Input Given the compound CC(=O)N[C@@H](CC(C)C)C(=O)N[C@@H](CC(C)C)C(=O)N[C@@H](CC(C)C)C(=O)N[C@@H](Cc1cnc[nH]1)C(=O)N[C@@H](CCCNC(=N)N)C(=O)N[C@H](C(=O)N[C@@H](CCCCN)C(=O)NCc1ccc(C(=N)N)cc1)C(C)C (Ac-LLLHRVK-{NH(4-amidinobenzyl)}) , what is its reported pKi?
## Output 9.05

## Input So what does the record say about pKi for CC(=O)N[C@@H](CC(C)C)C(=O)N[C@@H](CC(C)C)C(=O)N[C@@H](CC(C)C)C(=O)N[C@@H](CC(N)=O)C(=O)N[C@@H](CCCNC(=N)N)C(=O)N[C@H](C(=O)N[C@@H](CCCCN)C(=O)NCc1ccc(C(=N)N)cc1)C(C)C (Ac-LLLNRVK-{NH(4-amidinobenzyl)}) ?
## Output 8.52

## Input Given the entry CC(=O)N[C@@H](CC(C)C)C(=O)N[C@@H](CC(C)C)C(=O)N[C@@H](CC(C)C)C(=O)N[C@@H](C)C(=O)N[C@@H](CCCNC(=N)N)C(=O)N[C@H](C(=O)N[C@@H](CCCCN)C(=O)NCc1ccc(C(=N)N)cc1)C(C)C (Ac-LLLARVK-{NH(4-amidinobenzyl)}) , report its measured pKi.
## Output 8.30

## Input What value of measured pKi is listed for CC(=O)N[C@@H](CC(C)C)C(=O)N[C@@H](CC(C)C)C(=O)N[C@@H](CC(N)=O)C(=O)N[C@@H](CC(C)C)C(=O)N[C@@H](CCCNC(=N)N)C(=O)N[C@H](C(=O)N[C@@H](CCCCN)C(=O)NCc1ccc(C(=N)N)cc1)C(C)C (Ac-LLNLRVK-{NH(4-amidinobenzyl)}) ?
## Output 7.89

###

The following compounds are listed with their measured Ki values.
# TARGET_UNDER_TEST: Proprotein convertase subtilisin/kexin type 6 (Homo sapiens, UniProt P29122)
# Sequence (P29122 whole entry): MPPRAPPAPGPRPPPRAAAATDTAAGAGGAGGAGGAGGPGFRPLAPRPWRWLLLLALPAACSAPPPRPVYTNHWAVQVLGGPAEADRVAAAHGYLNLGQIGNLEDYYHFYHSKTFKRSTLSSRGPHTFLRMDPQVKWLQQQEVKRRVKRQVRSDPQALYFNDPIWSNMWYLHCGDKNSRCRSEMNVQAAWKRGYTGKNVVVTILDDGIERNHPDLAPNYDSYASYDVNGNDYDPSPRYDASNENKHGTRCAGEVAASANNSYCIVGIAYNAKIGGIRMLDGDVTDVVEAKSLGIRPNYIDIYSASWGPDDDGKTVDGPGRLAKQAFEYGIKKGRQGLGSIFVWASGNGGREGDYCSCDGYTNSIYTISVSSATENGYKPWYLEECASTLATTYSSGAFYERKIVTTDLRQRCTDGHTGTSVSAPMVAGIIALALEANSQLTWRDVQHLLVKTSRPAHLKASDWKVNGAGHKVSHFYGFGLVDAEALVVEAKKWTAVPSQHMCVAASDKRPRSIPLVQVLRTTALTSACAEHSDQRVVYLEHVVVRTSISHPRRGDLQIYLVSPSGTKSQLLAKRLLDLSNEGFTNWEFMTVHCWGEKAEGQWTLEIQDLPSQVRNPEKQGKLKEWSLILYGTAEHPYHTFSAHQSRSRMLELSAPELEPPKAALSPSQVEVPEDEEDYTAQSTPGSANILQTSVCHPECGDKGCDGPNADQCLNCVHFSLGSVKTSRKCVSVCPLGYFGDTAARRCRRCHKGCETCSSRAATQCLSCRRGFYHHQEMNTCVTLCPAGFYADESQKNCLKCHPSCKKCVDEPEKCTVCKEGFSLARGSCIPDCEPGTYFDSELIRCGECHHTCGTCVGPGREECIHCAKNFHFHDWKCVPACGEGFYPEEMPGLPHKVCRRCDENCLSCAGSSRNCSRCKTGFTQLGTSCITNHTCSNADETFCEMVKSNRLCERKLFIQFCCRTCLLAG
# PROCEDURE_SUMMARY: Inhibition of recombinant human PACE4 expressed in drosophila S2 cells using pyrGlu-Arg-Thr-Lys-Arg-7-amido-4-methylcoumarin as substrate after 60 mins by spectrofluorometry method
Peptide text beside a SMILES is read from it. * marks the point of attachment. NH(4-amidinobenzyl) = N=C(N)c1ccc(CN*)cc1
# value in nM; strip the unit string

# example entries with known answers
- COMPOUND: "CC(=O)N[C@@H](CC(C)C)C(=O)N[C@@H](CC(C)C)C(=O)N[C@@H](CC(C)C)C(=O)N[C@@H](Cc1ccc(O)cc1)C(=O)N[C@@H](CCCNC(=N)N)C(=O)N[C@H](C(=O)N[C@@H](CCCCN)C(=O)NCc1ccc(C(=N)N)cc1)C(C)C (Ac-LLLYRVK-{NH(4-amidinobenzyl)})"
  Ki, nM: 2
- COMPOUND: "CC(=O)N[C@@H](CC(C)C)C(=O)N[C@@H](CC(C)C)C(=O)N[C@@H](CC(C)C)C(=O)N[C@H](C(=O)N[C@@H](CCCNC(=N)N)C(=O)N[C@H](C(=O)N[C@@H](CCCCN)C(=O)NCc1ccc(C(=N)N)cc1)C(C)C)[C@@H](C)O (Ac-LLLTRVK-{NH(4-amidinobenzyl)})"
  Ki, nM: 2.8

## Input Recorded Ki for CC(=O)N[C@@H](CC(C)C)C(=O)N[C@H](C(=O)N[C@@H](CC(C)C)C(=O)N[C@@H](CC(C)C)C(=O)N[C@@H](CCCNC(=N)N)C(=O)N[C@H](C(=O)N[C@@H](CCCCN)C(=O)NCc1ccc(C(=N)N)cc1)C(C)C)C(C)C (Ac-LVLLRVK-{NH(4-amidinobenzyl)}) , please?
## Output 2
